reportedProperty: melting point

>  <molecule>
CCc1c(C(=O)C(N)=O)c2c(OCC(=O)OC)nc(C)nn2c1Cc1ccccc1 [Compound I-3]

>  <observedMeasurement>
170 to 171 °C

$$$$
>  <molecule>
CCc1c(C(=O)C(N)=O)c2c(OCC(=O)O)nc(C)nn2c1Cc1ccccc1 [Compound I-4]

>  <observedMeasurement>
207 to 209 °C

$$$$
>  <molecule>
CCc1c(C(=O)C(N)=O)c2c(OCC(=O)O)nc(C)nn2c1Cc1ccccc1-c1cccs1 [Compound I-6]

>  <observedMeasurement>
184 to 186 °C

$$$$
>  <molecule>
CCc1c(C(=O)C(N)=O)c2c(OCC(=O)O)nc(C)nn2c1Cc1ccccc1-c1ccccc1 [Compound I-8]

>  <observedMeasurement>
174 to 176 °C

$$$$
>  <molecule>
Cc1nc(OCC(=O)O)c2c(C(=O)C(N)=O)c(C)c(Cc3ccccc3)n2n1 [Compound I-2]

>  <observedMeasurement>
195 to 197 °C

$$$$
